System: Staphylococcus aureus
assay remarks: Antimicrobial activity against methicillin-sensitive Staphylococcus aureus ATCC 29213 by broth microdilution method
Assay type: functional
Task for the reader: assign each of the following compounds its reported MIC.
# number only, unit µg/mL dropped from output

What MIC value was documented for this compound, CO[C@@H]1[C@@H](O[C@@H]2O[C@H](C)[C@@H](OC(=O)/C=C/c3ccccc3)[C@H](N(C)C)[C@H]2O)[C@@H](CC=O)C[C@@H](C)[C@@H](OC(C)=O)/C=C/C=C/C[C@@H](C)OC(=O)C[C@H]1OC(C)=O ? 8

Next compound up: CO[C@@H]1[C@@H](O[C@@H]2O[C@H](C)[C@@H](OC(=O)c3ccccc3)[C@H](N(C)C)[C@H]2O)[C@@H](CC=O)C[C@@H](C)[C@@H](OC(C)=O)/C=C/C=C/C[C@@H](C)OC(=O)C[C@H]1OC(C)=O 8

Next compound up: CO[C@@H]1[C@@H](O[C@@H]2O[C@H](C)[C@@H](OC(=O)/C=C/c3ccnc4ccccc34)[C@H](N(C)C)[C@H]2O)[C@@H](CC=O)C[C@@H](C)[C@@H](OC(C)=O)/C=C/C=C/C[C@@H](C)OC(=O)C[C@H]1OC(C)=O 8

Next compound up: CO[C@@H]1[C@@H](O[C@@H]2O[C@H](C)[C@@H](O)[C@H](N(C)C)[C@H]2O)[C@@H](CC=O)C[C@@H](C)[C@@H](OC(C)=O)/C=C/C=C/C[C@@H](C)OC(=O)C[C@H]1OC(C)=O 16

Next compound up: COc1ccc(C(=O)O[C@H]2[C@H](N(C)C)[C@@H](O)[C@H](O[C@H]3[C@@H](CC=O)C[C@@H](C)[C@@H](OC(C)=O)/C=C/C=C/C[C@@H](C)OC(=O)C[C@@H](OC(C)=O)[C@@H]3OC)O[C@@H]2C)cc1 8

Next compound up: CO[C@@H]1[C@@H](O[C@@H]2O[C@H](C)[C@@H](OC(=O)c3ccc([N+](=O)[O-])cc3)[C@H](N(C)C)[C@H]2O)[C@@H](CC=O)C[C@@H](C)[C@@H](OC(C)=O)/C=C/C=C/C[C@@H](C)OC(=O)C[C@H]1OC(C)=O 32

Next compound up: CO[C@@H]1[C@@H](O[C@@H]2O[C@H](C)[C@@H](O[C@H]3C[C@@](C)(O)[C@@H](OC(=O)CC(C)C)[C@H](C)O3)[C@H](N(C)C)[C@H]2O)[C@@H](CC=O)C[C@@H](C)[C@@H](O)/C=C/C=C/C[C@@H](C)OC(=O)C[C@H]1OC(C)=O 1

Next compound up: CO[C@@H]1[C@@H](O[C@@H]2O[C@H](C)[C@@H](OC(=O)CC(C)C)[C@H](N(C)C)[C@H]2O)[C@@H](CC=O)C[C@@H](C)[C@@H](OC(C)=O)/C=C/C=C/C[C@@H](C)OC(=O)C[C@H]1OC(C)=O 8

Next compound up: CO[C@@H]1[C@@H](O[C@@H]2O[C@H](C)[C@@H](OC(=O)CCc3ccccc3)[C@H](N(C)C)[C@H]2O)[C@@H](CC=O)C[C@@H](C)[C@@H](OC(C)=O)/C=C/C=C/C[C@@H](C)OC(=O)C[C@H]1OC(C)=O 4

Next compound up: CCCC(=O)O[C@H]1[C@H](N(C)C)[C@@H](O)[C@H](O[C@H]2[C@@H](CC=O)C[C@@H](C)[C@@H](OC(C)=O)/C=C/C=C/C[C@@H](C)OC(=O)C[C@@H](OC(C)=O)[C@@H]2OC)O[C@@H]1C 4
